- tested.target: h-GABAA α1β2γ1 (Homo sapiens, UniProt P14867+Q8N1C3)
- Sequence (P14867 28-456): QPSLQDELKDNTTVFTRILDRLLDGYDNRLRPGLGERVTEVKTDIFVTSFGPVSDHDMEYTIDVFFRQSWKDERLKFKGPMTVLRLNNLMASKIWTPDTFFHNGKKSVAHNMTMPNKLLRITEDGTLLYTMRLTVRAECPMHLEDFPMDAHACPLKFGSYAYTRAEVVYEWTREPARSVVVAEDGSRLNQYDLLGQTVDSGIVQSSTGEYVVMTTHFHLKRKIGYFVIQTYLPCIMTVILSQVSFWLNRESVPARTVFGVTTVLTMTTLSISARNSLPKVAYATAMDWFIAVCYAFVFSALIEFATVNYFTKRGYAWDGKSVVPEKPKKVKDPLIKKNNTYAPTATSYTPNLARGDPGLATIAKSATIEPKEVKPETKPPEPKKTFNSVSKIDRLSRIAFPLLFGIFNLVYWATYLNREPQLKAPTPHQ
- Sequence (P47870 25-512 partner limits assumed): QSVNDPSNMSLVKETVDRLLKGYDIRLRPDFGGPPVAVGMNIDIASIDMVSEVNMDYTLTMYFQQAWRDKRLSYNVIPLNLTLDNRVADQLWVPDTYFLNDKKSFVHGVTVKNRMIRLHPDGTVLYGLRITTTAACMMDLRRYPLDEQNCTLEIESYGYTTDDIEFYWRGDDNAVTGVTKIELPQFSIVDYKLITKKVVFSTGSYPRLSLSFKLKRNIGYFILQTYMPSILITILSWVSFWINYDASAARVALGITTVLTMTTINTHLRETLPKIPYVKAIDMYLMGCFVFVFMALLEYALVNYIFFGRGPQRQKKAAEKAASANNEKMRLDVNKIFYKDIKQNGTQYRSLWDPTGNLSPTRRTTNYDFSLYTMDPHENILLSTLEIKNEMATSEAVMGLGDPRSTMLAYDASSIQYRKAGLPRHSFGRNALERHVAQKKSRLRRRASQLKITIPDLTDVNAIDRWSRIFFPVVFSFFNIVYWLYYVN
- Sequence (Q8N1C3 36-465): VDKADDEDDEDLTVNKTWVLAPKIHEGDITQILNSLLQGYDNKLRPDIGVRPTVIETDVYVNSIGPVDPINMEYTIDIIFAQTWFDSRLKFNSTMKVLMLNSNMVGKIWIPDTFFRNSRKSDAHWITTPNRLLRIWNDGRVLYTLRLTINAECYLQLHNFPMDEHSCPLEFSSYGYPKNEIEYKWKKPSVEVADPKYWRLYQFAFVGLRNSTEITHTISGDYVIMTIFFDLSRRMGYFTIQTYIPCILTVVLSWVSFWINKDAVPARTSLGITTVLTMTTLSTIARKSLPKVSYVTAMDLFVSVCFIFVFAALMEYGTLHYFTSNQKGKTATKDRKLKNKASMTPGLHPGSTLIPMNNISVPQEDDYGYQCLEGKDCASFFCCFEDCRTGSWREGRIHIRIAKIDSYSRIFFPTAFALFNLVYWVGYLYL
- procedure.details: Radioligand binding assay, [3H]RO7239181 competition, HEK293F membranes
So I've got a bunch of compounds here, and I need their log10 of Ki values.
Remember, log10 of Ki, in nM.

Input: Input Fc1cccnc1C1=NCc2nnc(-c3cccnn3)n2-c2ccc(Br)c(Cl)c21 [Example 45] , output reported log10 of Ki.
Output: 1.74

Input: Input Fc1cccc(F)c1C1=NCc2nncn2-c2ccc(Br)c(Cl)c21 [Example 7] , output reported log10 of Ki.
Output: 0.96

Input: Input COc1ccc2c(c1Cl)C(c1c(F)cccc1F)=NCc1nnc(-c3cccnc3)n1-2 [Example 62] , output reported log10 of Ki.
Output: 2.21

Input: Input Fc1cccnc1C1=NCc2nnc(C3CC3)n2-c2ccc(Br)c(Cl)c21 [Example 77] , output reported log10 of Ki.
Output: 1.62

Input: Input Cc1nnc2n1-c1ccc(C(F)(F)F)c(Cl)c1C(c1c(F)cccc1F)=NC2 [Example 40] , output reported log10 of Ki.
Output: 1.32

Input: Input Cc1ncc2n1-c1ccc(Cl)cc1C(c1ccccc1F)=NC2 [Midazolam, reference compound] , output reported log10 of Ki.
Output: 3.06

Input: Input Fc1cccnc1C1=NCc2nnc(-c3cccnn3)n2-c2ccc(Cl)c(Cl)c21 [Example 54] , output reported log10 of Ki.
Output: 2.08

====

- tested.target: h-GABAA α1β2γ1 (Homo sapiens, UniProt P14867+Q8N1C3)
- procedure.details: Radioligand binding assay, [3H]RO7239181 competition, HEK293F membranes
measurement.name: pKi
Friendly reminder that pKi comes from taking -log10 of the concentration in mol/L.

Input: Input Fc1cccc(F)c1C1=NCc2nncn2-c2ccc(C(F)F)c(Cl)c21 [Example 23] , output reported pKi.
Output: 7.19

Input: Input Fc1cccnc1C1=NCc2nncn2-c2ccc(Br)c(Cl)c21 [Example 29] , output reported pKi.
Output: 7.18

Input: Input Cc1nnc2n1-c1ccc(C(F)(F)F)c(Cl)c1C(c1ncccc1F)=NC2 [Example 78] , output reported pKi.
Output: 7.17

====

So I've got a bunch of molecules here, and I need their pKi values.
- tested.target: h-GABAA α2β2γ1 (Homo sapiens, UniProt P47869+Q8N1C3)
- procedure.details: Radioligand binding assay, [3H]RO7239181 competition, HEK293F membranes
Friendly reminder that pKi comes from taking -log10 of the concentration in mol/L.

Input: Input Cc1nnc2n1-c1ccc(Cl)c(Cl)c1C(c1c(F)cccc1F)=NC2 [Example 5] , output reported pKi.
Output: 8.18

Input: Input Cc1ccc2c(c1Cl)C(c1c(F)cccc1F)=NCc1nnc(-c3cccnn3)n1-2 [Example 48] , output reported pKi.
Output: 8.08

Input: Input Fc1cccc(F)c1C1=NCc2nncn2-c2ccc(Br)c(Cl)c21 [Example 7] , output reported pKi.
Output: 8.07

Input: Input Fc1cccnc1C1=NCc2nnc(-c3cccnn3)n2-c2ccc(Cl)c(Cl)c21 [Example 54] , output reported pKi.
Output: 7.52

Input: Input Cc1ccc2c(c1Cl)C(c1c(F)cccc1F)=NCc1n[nH]c(=O)n1-2 [Example 16] , output reported pKi.
Output: 7.58

Input: Input Cc1nnc2n1-c1ccc(C(F)F)c(Cl)c1C(c1c(F)cccc1F)=NC2 [Example 25] , output reported pKi.
Output: 7.31

Input: Input Fc1ccccc1C1=NCc2nnc(-c3ccncn3)n2-c2ccc(Cl)c(Cl)c21 [Example 18] , output reported pKi.
Output: 7.67

Input: Input Cl.NCc1nnc2n1-c1ccc(Br)c(Cl)c1C(c1c(F)cccc1F)=NC2 [Example 36, hydrochloride] , output reported pKi.
Output: 8.07

Input: Input Fc1cccc(F)c1C1=NCc2nnc(-c3cccnn3)n2-c2ccc(C(F)(F)F)c(Cl)c21 [Example 38] , output reported pKi.
Output: 7.90

====

- tested.target: h-GABAA α2β2γ1 (Homo sapiens, UniProt P47869+Q8N1C3)
- procedure.details: Radioligand binding assay, [3H]RO7239181 competition, HEK293F membranes
So I've got a bunch of compounds here, and I need their pKi values.
Friendly reminder that pKi comes from taking -log10 of the concentration in mol/L.

Input: Input COCCc1nnc2n1-c1ccc(Cl)c(Cl)c1C(c1c(F)cccc1F)=NC2 , output reported pKi.
Output: 7.59

Input: Input O=c1[nH]nc2n1-c1ccc(Br)c(Cl)c1C(c1c(F)cccc1F)=NC2 , output reported pKi.
Output: 8.21

Input: Input Fc1ccccc1C1=NCc2nnc(-c3cccnn3)n2-c2ccc(Cl)c(Cl)c21 , output reported pKi.
Output: 8.02

Input: Input Cc1nnc2n1-c1ccc(Cl)c(Cl)c1C(c1ncccc1F)=NC2 , output reported pKi.
Output: 7.42

Input: Input Fc1cccc(F)c1C1=NCc2nncn2-c2ccc(I)c(Cl)c21 , output reported pKi.
Output: 8.00

Input: Input Cc1nnc2n1-c1ccc(C(C)(F)F)c(Cl)c1C(c1c(F)cccc1F)=NC2 , output reported pKi.
Output: 7.43

Input: Input Cc1ccc2c(c1Cl)C(c1c(F)cccc1F)=NCc1nnc(C)n1-2 , output reported pKi.
Output: 7.62

Input: Input Cc1nnc2n1-c1ccc(Br)cc1C(c1c(F)cccc1F)=NC2 [RE-A, reference compound] , output reported pKi.
Output: 7.49

Input: Input Cc1nnc2n1-c1ccc(Br)c(Cl)c1C(c1c(F)cccc1Cl)=NC2 , output reported pKi.
Output: 8.33

Input: Input Fc1ccccc1C1=NCc2nnc(-c3cccnn3)n2-c2ccc(Br)c(Cl)c21 , output reported pKi.
Output: 8.06

Input: Input Cc1nnc2n1-c1ccc(I)c(Cl)c1C(c1c(F)cccc1F)=NC2 , output reported pKi.
Output: 8.26

Input: Input Fc1cccnc1C1=NCc2nnc(-c3ccncn3)n2-c2ccc(Cl)c(Cl)c21 , output reported pKi.
Output: 7.73

Input: Input Fc1cccc(F)c1C1=NCc2nncn2-c2ccc(C(F)F)c(Cl)c21 , output reported pKi.
Output: 7.26

Input: Input Fc1cccnc1C1=NCc2nnc(-c3ccncn3)n2-c2ccc(C(F)(F)F)c(Cl)c21 , output reported pKi.
Output: 7.20
